# Tested on: NCI-H322M lung
# Assay explanation: NCI-60 one-dose screen, 48 h
# Measurement setup: 10 µM unless noted
Compounds without any hit were thinned out: in the full panel of roughly 83,000, 20% have a hit. Calls of active or inactive are those of the source. The calls were made as follows: active = growth percent below 10; inactive = the rest.
Hello, when you answer, please use one of the following outcomes: T (active), F (inactive)

// known answers, use as guide
INSERT INTO measurements (cpd_smiles, group_label) VALUES
  ('Cc1ncc(C(=O)Nc2ccc(CN3CCN(C)CC3)c(C(F)(F)F)c2)cc1C#Cc1cnc(N)c2ncccc12', 'F'),
  ('O=C(Cc1cccc(OC(F)(F)F)c1)Nc1ccc(CCCCc2nnc(NC(=O)Cc3ccccn3)s2)nn1', 'F'),
  ('Cc1ccc(-c2csc(N(C(=O)N3CCN(c4cc5c(cc4F)c(=O)c(C(=O)O)cn5C4CC4)CC3)c3ccccc3)n2)cc1', 'T');

Request: Test call for this compound, please: Cc1ccc(-c2csc(NC(=O)c3ccccc3CN3C(=O)c4ccccc4C3=O)n2)cc1
Result: F

The reported numbers originate from PubChem BioAssay (NCI).
